# tgt: Dual specificity mitogen-activated protein kinase kinase 1 (Homo sapiens, UniProt Q02750)
# Sequence (Q02750 whole entry): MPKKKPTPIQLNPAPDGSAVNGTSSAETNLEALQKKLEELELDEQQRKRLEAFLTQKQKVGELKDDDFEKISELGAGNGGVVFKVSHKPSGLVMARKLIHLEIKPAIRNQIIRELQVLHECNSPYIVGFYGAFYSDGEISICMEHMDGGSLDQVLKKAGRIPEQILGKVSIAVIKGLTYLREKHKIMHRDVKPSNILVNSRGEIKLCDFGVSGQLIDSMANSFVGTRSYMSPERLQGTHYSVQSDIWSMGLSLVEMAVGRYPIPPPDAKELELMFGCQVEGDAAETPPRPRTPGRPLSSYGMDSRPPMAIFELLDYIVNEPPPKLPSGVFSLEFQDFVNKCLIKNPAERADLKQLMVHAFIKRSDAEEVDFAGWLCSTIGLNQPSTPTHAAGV
# procedureDetails: Inhibitory activity against MEK
pIC50: −log10 of the molar value.
readoutLabel: pIC50

INSERT INTO measurements (testsmiles, tgt, readoutlabel, ltgteq, reportedvalue) VALUES
  ('CCOC(=O)c1cn2ncc(C#N)c(Nc3ccc(Cc4ccccc4)cc3)c2c1C', 'Dual specificity mitogen-activated protein kinase kinase 1 (Homo sapiens, UniProt Q02750)', 'pIC50', '=', 7.17),
  ('CCOC(=O)c1cn2ncc(C#N)c(Nc3ccc(Oc4ccccc4)cc3)c2c1CO', 'Dual specificity mitogen-activated protein kinase kinase 1 (Homo sapiens, UniProt Q02750)', 'pIC50', '=', 6.69),
  ('Cc1c(C(=O)NCCN2CCOCC2)cn2ncc(C#N)c(Nc3ccc(Oc4ccccc4)cc3)c12', 'Dual specificity mitogen-activated protein kinase kinase 1 (Homo sapiens, UniProt Q02750)', 'pIC50', '=', 6.41),
  ('Cc1c(C(=O)O)cn2ncc(CN)c(Nc3ccc(Oc4ccccc4)cc3)c12', 'Dual specificity mitogen-activated protein kinase kinase 1 (Homo sapiens, UniProt Q02750)', 'pIC50', '<', 4.60),
  ('Cc1ccn2ncc(C#N)c(Nc3ccc(Oc4ccccc4)cc3)c12', 'Dual specificity mitogen-activated protein kinase kinase 1 (Homo sapiens, UniProt Q02750)', 'pIC50', '=', 6.62),
  ('COc1ccccc1Oc1ccc(Nc2c(C#N)cnn3cc(NC(=O)OCCN4CCOCC4)c(C)c23)cc1', 'Dual specificity mitogen-activated protein kinase kinase 1 (Homo sapiens, UniProt Q02750)', 'pIC50', '=', 7.32),
  ('CCOC(=O)c1cn2ncnc(Nc3ccc(Oc4ccccc4)cc3)c2c1C', 'Dual specificity mitogen-activated protein kinase kinase 1 (Homo sapiens, UniProt Q02750)', 'pIC50', '=', 5.46),
  ('Cc1c(C(=O)O)cn2ncc(CNS(C)(=O)=O)c(Nc3ccc(Oc4ccccc4)cc3)c12', 'Dual specificity mitogen-activated protein kinase kinase 1 (Homo sapiens, UniProt Q02750)', 'pIC50', '<', 4.60),
  ('CCOC(=O)c1cn2ncc(C#N)c(Nc3ccc(-c4ccccc4)cc3)c2c1C', 'Dual specificity mitogen-activated protein kinase kinase 1 (Homo sapiens, UniProt Q02750)', 'pIC50', '<', 4.60),
  ('CCOC(=O)c1cn2ncc(C#N)c(Nc3ccc(OCc4ccccc4)cc3)c2c1C', 'Dual specificity mitogen-activated protein kinase kinase 1 (Homo sapiens, UniProt Q02750)', 'pIC50', '<', 4.60),
  ('Cc1c(N)cn2ncc(C#N)c(Nc3ccc(Oc4ccccc4)cc3)c12', 'Dual specificity mitogen-activated protein kinase kinase 1 (Homo sapiens, UniProt Q02750)', 'pIC50', '=', 6.72),
  ('COc1cccc(Oc2ccc(Nc3c(C#N)cnn4cc(NC(=O)NCCN5CCOCC5)c(C)c34)cc2)c1', 'Dual specificity mitogen-activated protein kinase kinase 1 (Homo sapiens, UniProt Q02750)', 'pIC50', '=', 7.54),
  ('CC(=O)Nc1cccc(C(=O)Nc2cn3ncc(C#N)c(Nc4ccc(Oc5ccccc5)cc4)c3c2C)c1', 'Dual specificity mitogen-activated protein kinase kinase 1 (Homo sapiens, UniProt Q02750)', 'pIC50', '=', 7.85),
  ('CCOC(=O)c1cn2ncc(C#N)c(Nc3ccc(Oc4ccccc4)cc3)c2c1COCCOC', 'Dual specificity mitogen-activated protein kinase kinase 1 (Homo sapiens, UniProt Q02750)', 'pIC50', '=', 6.25),
  ('Cc1c(NC(=O)NCCN2CCOCC2)cn2ncc(C#N)c(Nc3ccc(Oc4ccccc4F)cc3)c12', 'Dual specificity mitogen-activated protein kinase kinase 1 (Homo sapiens, UniProt Q02750)', 'pIC50', '=', 7.48),
  ('CCOCc1c(C(=O)OCC)cn2ncc(C#N)c(Nc3ccc(Oc4ccccc4)cc3)c12', 'Dual specificity mitogen-activated protein kinase kinase 1 (Homo sapiens, UniProt Q02750)', 'pIC50', '=', 6.48),
  ('Cc1c(-c2nc3ccccc3[nH]2)cn2ncc(C#N)c(Nc3ccc(Oc4ccccc4)cc3)c12', 'Dual specificity mitogen-activated protein kinase kinase 1 (Homo sapiens, UniProt Q02750)', 'pIC50', '=', 6.77),
  ('Cc1c(C(=O)O)cn2ncc(C#N)c(Nc3ccc(Oc4ccccc4)cc3)c12', 'Dual specificity mitogen-activated protein kinase kinase 1 (Homo sapiens, UniProt Q02750)', 'pIC50', '=', 6.83),
  ('COc1ccccc1Oc1ccc(Nc2c(C#N)cnn3cc(NC(=O)NCCN4CCOCC4)c(C)c23)cc1', 'Dual specificity mitogen-activated protein kinase kinase 1 (Homo sapiens, UniProt Q02750)', 'pIC50', '=', 7.62),
  ('CCOC(=O)c1cn2ncc(C#N)c(Nc3ccc(Oc4ccc(Cl)cc4)cc3)c2c1C', 'Dual specificity mitogen-activated protein kinase kinase 1 (Homo sapiens, UniProt Q02750)', 'pIC50', '=', 6.19);
